Hello, the source for this data is ChEMBL document CHEMBL1130161, in case you need it.

Measured Resistance accompanies every entry in the list below.
Test: Resistance of constructed mutant 82F virus was calculated as (IC90 for a mutant virus / IC90 of wt HXB2 virus).
Type: functional
ENDPOINT: Resistance

>>> data_value("O=C(Nc1nccs1)c1cccc(CN2C(=O)N(Cc3cccc(C(=O)Nc4nccs4)c3)[C@H](Cc3ccccc3)[C@H](O)[C@@H](O)[C@H]2Cc2ccccc2)c1")
0.9
>>> data_value("CC(C)[C@H](NC(=O)OCc1ccccc1)C(=O)N[C@@H](Cc1ccccc1)[C@H](O)[C@@H](O)[C@@H](Cc1ccccc1)NC(=O)[C@H](NC(=O)OCc1ccccc1)C(C)C")
1.8
>>> data_value("O=C(Nc1nc2ccccc2[nH]1)c1cccc(CN2C(=O)N(Cc3cccc(C(=O)Nc4nc5ccccc5[nH]4)c3)[C@H](Cc3ccccc3)[C@H](O)[C@@H](O)[C@H]2Cc2ccccc2)c1")
0.3

###

Measured Resistance accompanies every entry in the list below.
System: Human immunodeficiency virus
Test: Resistance of constructed mutant MK639 virus was calculated as (IC90 for a mutant virus / IC90 of wt HXB2 virus).
Type: functional
ENDPOINT: Resistance

>>> data_value("O=C(Nc1ncc[nH]1)c1cccc(CN2C(=O)N(CC3CC3)[C@H](Cc3ccccc3)[C@H](O)[C@@H](O)[C@H]2Cc2ccccc2)c1")
12
>>> data_value("O=C1N(CC2CC2)[C@H](Cc2ccccc2)[C@H](O)[C@@H](O)[C@@H](Cc2ccccc2)N1CC1CC1")
11
>>> data_value("O=C(Nc1nccs1)c1cccc(CN2C(=O)N(Cc3ccccc3)[C@H](Cc3ccccc3)[C@H](O)[C@@H](O)[C@H]2Cc2ccccc2)c1")
10
>>> data_value("CC(C)(C)NC(=O)[C@@H]1CN(Cc2cccnc2)CCN1C[C@@H](O)C[C@@H](Cc1ccccc1)C(=O)N[C@H]1c2ccccc2C[C@H]1O.O")
18
>>> data_value("O=C(Nc1nc2ccccc2[nH]1)c1cccc(CN2C(=O)N(CC3CC3)[C@H](Cc3ccccc3)[C@H](O)[C@@H](O)[C@H]2Cc2ccccc2)c1")
26

###

Test system: Human immunodeficiency virus
Test: Resistance of constructed mutant MK639 virus was calculated as (IC90 for a mutant virus / IC90 of wt HXB2 virus).
Type: functional
// label = True if Resistance is not less than 6, otherwise False

>>> label("O=C(Nc1ncc[nH]1)c1cccc(CN2C(=O)N(Cc3ccccc3)[C@H](Cc3ccccc3)[C@H](O)[C@@H](O)[C@H]2Cc2ccccc2)c1")
"True"
>>> label("O=C(Nc1nccs1)c1cccc(CN2C(=O)N(Cc3cccc(C(=O)Nc4nccs4)c3)[C@H](Cc3ccccc3)[C@H](O)[C@@H](O)[C@H]2Cc2ccccc2)c1")
"True"
>>> label("O=C1N(Cc2ccc(CO)cc2)[C@H](Cc2ccccc2)[C@H](O)[C@@H](O)[C@@H](Cc2ccccc2)N1Cc1ccc(CO)cc1")
"True"
>>> label("CC(C)c1nc(CN(C)C(=O)N[C@H](C(=O)N[C@@H](Cc2ccccc2)C[C@H](O)[C@H](Cc2ccccc2)NC(=O)OCc2cncs2)C(C)C)cs1")
"False"
>>> label("CC(C)[C@H](NC(=O)OCc1ccccc1)C(=O)N[C@@H](Cc1ccccc1)[C@H](O)[C@@H](O)[C@@H](Cc1ccccc1)NC(=O)[C@H](NC(=O)OCc1ccccc1)C(C)C")
"True"
>>> label("CC(C)CN(C[C@@H](O)[C@H](Cc1ccccc1)NC(=O)O[C@H]1CCOC1)S(=O)(=O)c1ccc(N)cc1")
"False"
>>> label("CCCCN1C(=O)N(Cc2cccc(C(=O)Nc3ncc[nH]3)c2)[C@H](Cc2ccccc2)[C@H](O)[C@@H](O)[C@H]1Cc1ccccc1")
"True"
>>> label("CC(C)(C)NC(=O)[C@@H]1C[C@@H]2CCCC[C@@H]2CN1C[C@@H](O)[C@H](Cc1ccccc1)NC(=O)[C@H](CC(N)=O)NC(=O)c1ccc2ccccc2n1")
"False"
>>> label("Nc1cccc(CN2C(=O)N(Cc3cccc(N)c3)[C@H](Cc3ccccc3)[C@H](O)[C@@H](O)[C@H]2Cc2ccccc2)c1")
"True"
>>> label("O=C(Nc1nccs1)c1cccc(CN2C(=O)N(CC3CC3)[C@H](Cc3ccccc3)[C@H](O)[C@@H](O)[C@H]2Cc2ccccc2)c1")
"True"
>>> label("O=C(Nc1nc2ccccc2[nH]1)c1cccc(CN2C(=O)N(Cc3cccc(C(=O)Nc4nc5ccccc5[nH]4)c3)[C@H](Cc3ccccc3)[C@H](O)[C@@H](O)[C@H]2Cc2ccccc2)c1")
"False"
>>> label("O=C(Nc1ncc[nH]1)c1cccc(CN2C(=O)N(Cc3cccc(C(=O)Nc4ncc[nH]4)c3)[C@H](Cc3ccccc3)[C@H](O)[C@@H](O)[C@H]2Cc2ccccc2)c1")
"False"

###

System: Human immunodeficiency virus
Assay: Resistance of constructed mutant ABT538 virus was calculated as (IC90 for a mutant virus / IC90 of wt HXB2 virus)
Assay type: functional
ENDPOINT: Resistance

>>> data_value("Nc1cccc(CN2C(=O)N(Cc3cccc(N)c3)[C@H](Cc3ccccc3)[C@H](O)[C@@H](O)[C@H]2Cc2ccccc2)c1 [MOZENAVIR]")
49
>>> data_value("CC(C)[C@H](NC(=O)OCc1ccccc1)C(=O)N[C@@H](Cc1ccccc1)[C@H](O)[C@@H](O)[C@@H](Cc1ccccc1)NC(=O)[C@H](NC(=O)OCc1ccccc1)C(C)C")
13
>>> data_value("O=C(Nc1nccs1)c1cccc(CN2C(=O)N(CC3CC3)[C@H](Cc3ccccc3)[C@H](O)[C@@H](O)[C@H]2Cc2ccccc2)c1")
41

###

System: Human immunodeficiency virus
Assay: Resistance of constructed mutant ABT538 virus was calculated as (IC90 for a mutant virus / IC90 of wt HXB2 virus)
Assay type: functional
Measured Resistance accompanies every entry in the list below.
ENDPOINT: Resistance

>>> data_value("CC(C)CN(C[C@@H](O)[C@H](Cc1ccccc1)NC(=O)O[C@H]1CCOC1)S(=O)(=O)c1ccc(N)cc1")
13
>>> data_value("O=C(Nc1nc2ccccc2[nH]1)c1cccc(CN2C(=O)N(Cc3cccc(C(=O)Nc4nc5ccccc5[nH]4)c3)[C@H](Cc3ccccc3)[C@H](O)[C@@H](O)[C@H]2Cc2ccccc2)c1")
1.2
>>> data_value("O=C(Nc1ncc[nH]1)c1cccc(CN2C(=O)N(CC3CC3)[C@H](Cc3ccccc3)[C@H](O)[C@@H](O)[C@H]2Cc2ccccc2)c1")
83
>>> data_value("CCCCN1C(=O)N(Cc2cccc(C(=O)Nc3ncc[nH]3)c2)[C@H](Cc2ccccc2)[C@H](O)[C@@H](O)[C@H]1Cc1ccccc1")
27
>>> data_value("CC(C)(C)NC(=O)[C@@H]1CN(Cc2cccnc2)CCN1C[C@@H](O)C[C@@H](Cc1ccccc1)C(=O)N[C@H]1c2ccccc2C[C@H]1O.O")
6.5
>>> data_value("O=C(Nc1nccs1)c1cccc(CN2C(=O)N(Cc3ccccc3)[C@H](Cc3ccccc3)[C@H](O)[C@@H](O)[C@H]2Cc2ccccc2)c1")
31
>>> data_value("O=C(Nc1nc2ccccc2[nH]1)c1cccc(CN2C(=O)N(CC3CC3)[C@H](Cc3ccccc3)[C@H](O)[C@@H](O)[C@H]2Cc2ccccc2)c1")
86
>>> data_value("O=C1N(Cc2ccc(CO)cc2)[C@H](Cc2ccccc2)[C@H](O)[C@@H](O)[C@@H](Cc2ccccc2)N1Cc1ccc(CO)cc1 [DMP-323]")
93
>>> data_value("CC(C)(C)NC(=O)[C@@H]1C[C@@H]2CCCC[C@@H]2CN1C[C@@H](O)[C@H](Cc1ccccc1)NC(=O)[C@H](CC(N)=O)NC(=O)c1ccc2ccccc2n1")
0.6
>>> data_value("O=C(Nc1ncc[nH]1)c1cccc(CN2C(=O)N(Cc3cccc(C(=O)Nc4ncc[nH]4)c3)[C@H](Cc3ccccc3)[C@H](O)[C@@H](O)[C@H]2Cc2ccccc2)c1")
0.2
>>> data_value("CC(C)c1nc(CN(C)C(=O)N[C@H](C(=O)N[C@@H](Cc2ccccc2)C[C@H](O)[C@H](Cc2ccccc2)NC(=O)OCc2cncs2)C(C)C)cs1 [RITONAVIR]")
30
>>> data_value("O=C(Nc1nccs1)c1cccc(CN2C(=O)N(Cc3cccc(C(=O)Nc4nccs4)c3)[C@H](Cc3ccccc3)[C@H](O)[C@@H](O)[C@H]2Cc2ccccc2)c1")
24
>>> data_value("O=C1N(CC2CC2)[C@H](Cc2ccccc2)[C@H](O)[C@@H](O)[C@@H](Cc2ccccc2)N1CC1CC1")
7.2
>>> data_value("O=C(Nc1ncc[nH]1)c1cccc(CN2C(=O)N(Cc3ccccc3)[C@H](Cc3ccccc3)[C@H](O)[C@@H](O)[C@H]2Cc2ccccc2)c1")
29

###

Measured IC90 accompanies every entry in the list below.
Target: Human immunodeficiency virus type 1 protease (Human immunodeficiency virus 1)
Assay: Inhibitory concentration against accumulation of viral p24 antigen following infection of MT-4 cells
Format: functional, cell-based
Settings: MT4
ENDPOINT: IC90

>>> data_value("CC(C)CN(C[C@@H](O)[C@H](Cc1ccccc1)NC(=O)O[C@H]1CCOC1)S(=O)(=O)c1ccc(N)cc1")
"81 nM"
>>> data_value("O=C(Nc1nccs1)c1cccc(CN2C(=O)N(Cc3ccccc3)[C@H](Cc3ccccc3)[C@H](O)[C@@H](O)[C@H]2Cc2ccccc2)c1")
"74 nM"
>>> data_value("O=C(Nc1ncc[nH]1)c1cccc(CN2C(=O)N(Cc3cccc(C(=O)Nc4ncc[nH]4)c3)[C@H](Cc3ccccc3)[C@H](O)[C@@H](O)[C@H]2Cc2ccccc2)c1")
"19 nM"
>>> data_value("O=C(Nc1nccs1)c1cccc(CN2C(=O)N(Cc3cccc(C(=O)Nc4nccs4)c3)[C@H](Cc3ccccc3)[C@H](O)[C@@H](O)[C@H]2Cc2ccccc2)c1")
"4.2 nM"
